# protocol: Oral bioavailability in mouse using methylcellulose-tween at 5 mg/kg
# Assay type: ADME, organism-based
# test-conditions: in vivo

{"columns": ["compound-structure-string", "unit-annotation", "bioavailability"],
 "data": [
  ["Cc1cc(F)c(NC(=O)NCCC(C)(C)C)cc1Nc1ccc2ncn(C)c(=O)c2c1", "%", 0]
]}

---

# protocol: Lipophilicity, log D of the compound at pH 7.4
# Format: physicochemical
# test-conditions: buffer
assay-metric: logD

{"columns": ["compound-structure-string", "recorded-number"],
 "data": [
  ["Cc1cc(F)c(NC(=O)NCCC(C)(C)C)cc1Nc1ccc2ncn(C)c(=O)c2c1", 4.47],
  ["Cc1cc(F)c(NC(=O)NCCC(C)(C)C)cc1Nc1ccc2ncn(C)c(=O)c2c1F", 4.47]
]}
